B1: Arabinogalactan endo-beta-1,4-galactanase, P48842 (parent)
chain: MFASLLLAALPLLTHAALTYRGADISSLLLLEDEGYSYKNLNGQTQALETILADAGINSIRQRVWVNPSDGSYDLDYNLELAKRVKAAGMSLYLDLHLSDTWADPSDQTTPSGWSTTDLGTLKWQLYNYTLEVCNTFAENDIDIEIISIGNEIRAGLLWPLGETSSYSNIGALLHSGAWGVKDSNLATTPKIMIHLDDGWSWDQQNYFYETVLATGELLSTDFDYFGVSYYPFYSASATLASLKTSLANLQSTYDKPVVVVETNWPVSCPNPAYAFPSDLSSIPFSVAGQQEFLEKLAAVVEATTDGLGVYYWEPAWIGNAGLGSSCADNLMVDYTTDEVYESIETLGEL

Variants of: B1
TEST_PARAMETERS: Aspergillus aculeatus; pH 4.5; Thermal; DSC; sodium acetate buffer 50 mM; transition: 2; reversible: no; structure 1FHL; whole UniProt chain shown
REPORTED_ENDPOINT: change of melting temperature, mutant - wild type (higher = more stable)
Please answer using a numeric value trailed by its unit.

Example cases with answers are listed next.
>>> df
           mut  experimental_value
0        G322A              1.1 °C
1  G120D A172R            -0.18 °C
2  S201D Q204T             0.11 °C

Entry `Y311F` — recorded change of melting temperature, mutant - wild type (higher = more stable) = 0.34 °C

Entry `D74N` — recorded change of melting temperature, mutant - wild type (higher = more stable) = 0.65 °C

Entry `D198N` — recorded change of melting temperature, mutant - wild type (higher = more stable) = 0.53 °C
